test system: TAZ nuclear translocation in SW1990 cells; assay: TAZ Nuclear Translocation Assay; assay type: cell-based; conditions: Homo sapiens, 4 hours
The recorded EC50 of each item maps onto one of these classes: L: < 400 nM; M: ≥ 400 nM and < 2000 nM; H: ≥ 2000 nM

# compound, study system, class name
rows = [
    ("CCc1cncc2nc(-c3ccncc3)nc(N3CCC4(CCNC4)CC3)c12", "TAZ nuclear translocation in SW1990 cells", "M"),
    ("Cc1[nH]ncc1-c1nc(N2CCC3(CC2)CCN([C@@H]2CC[C@H]2O)C3)c2ccncc2n1 (single isomer, unassigned)", "TAZ nuclear translocation in SW1990 cells", "H"),
    ("Cc1[nH]ncc1-c1nc(N2CCC3(CC2)CCN([C@H]2CCC[C@@H]2O)C3)c2ccncc2n1 (single isomer, unassigned)", "TAZ nuclear translocation in SW1990 cells", "M"),
    ("O=C1CC2(CCN(c3nc(-c4ccncc4)nc4cnccc34)CC2)CN1", "TAZ nuclear translocation in SW1990 cells", "H"),
    ("c1cc(-c2nc(N3CCC4(CC3)CCN(C3CCC3)C4)c3ccncc3n2)ccn1", "TAZ nuclear translocation in SW1990 cells", "L"),
    ("CS(=O)(=O)NCC1CC2(CCN(c3nc(-c4ccncc4)nc4cnccc34)CC2)CN1 (stereo not shown)", "TAZ nuclear translocation in SW1990 cells", "H"),
    ("COC[C@@H]1CC2(CCN(c3nc(-c4ccncc4)nc4cnccc34)CC2)CN1 (single isomer, unassigned)", "TAZ nuclear translocation in SW1990 cells", "L"),
    ("CN1CC2(CCN(c3nc(-c4ccncc4)nc4cnccc34)CC2)CC1CO (racemic)", "TAZ nuclear translocation in SW1990 cells", "H"),
    ("Cc1n[nH]cc1-c1nc(N2CCC3(CCNC3)CC2)c2ccnc(C)c2n1", "TAZ nuclear translocation in SW1990 cells", "H"),
    ("O[C@@H]1CC[C@@H]1N1CCC2(CCN(c3nc(-c4ccncc4)nc4cnccc34)CC2)C1 (single isomer, unassigned)", "TAZ nuclear translocation in SW1990 cells", "M"),
    ("Clc1[nH]ncc1-c1nc(N2CCC3(CCNC3)CC2)c2ccncc2n1", "TAZ nuclear translocation in SW1990 cells", "H"),
    ("Brc1cncc2nc(-c3ccncc3)nc(N3CCC4(CCNC4)CC3)c12", "TAZ nuclear translocation in SW1990 cells", "M"),
    ("CC(C)(O)C#Cc1nccc2c(N3CCC4(CCNC4)CC3)nc(-c3ccncc3)nc12", "TAZ nuclear translocation in SW1990 cells", "H"),
    ("Cc1n[nH]cc1-c1nc(N2CCC3(CCNC3)CC2)c2ccnc(Cl)c2n1", "TAZ nuclear translocation in SW1990 cells", "H"),
    ("O[C@H]1COC[C@@H]1N1CCC2(CCN(c3nc(-c4ccncc4)nc4cnccc34)CC2)C1 (single isomer, unassigned)", "TAZ nuclear translocation in SW1990 cells", "H"),
    ("CNC(=O)C1CC2(CCN(c3nc(-c4ccncc4)nc4cnccc34)CC2)CN1 (stereo not shown)", "TAZ nuclear translocation in SW1990 cells", "H"),
    ("FCOc1cncc2nc(-c3ccncc3)nc(N3CCC4(CCNC4)CC3)c12", "TAZ nuclear translocation in SW1990 cells", "L"),
    ("c1cc(-c2nc(N3CCC4(CC3)CCN(C3CCCCC3)C4)c3ccncc3n2)ccn1", "TAZ nuclear translocation in SW1990 cells", "M"),
    ("c1cc(-c2nc(N3CCC4(CCN(CC5COC5)C4)CC3)c3ccncc3n2)ccn1", "TAZ nuclear translocation in SW1990 cells", "L"),
    ("c1cc(-c2nc(N3CCC4(CC3)CCN(C3COC3)C4)c3ccncc3n2)ccn1", "TAZ nuclear translocation in SW1990 cells", "M"),
    ("C=CCOc1cncc2nc(-c3ccncc3)nc(N3CCC4(CCNC4)CC3)c12", "TAZ nuclear translocation in SW1990 cells", "L"),
    ("COC(=O)C1CC2(CCN(c3nc(-c4ccncc4)nc4cnccc34)CC2)CN1 (stereo not shown)", "TAZ nuclear translocation in SW1990 cells", "H"),
    ("Cc1n[nH]cc1-c1nc(N2CCC3(CCN(C[C@@H](C)O)C3)CC2)c2ccncc2n1 (single isomer, unassigned)", "TAZ nuclear translocation in SW1990 cells", "M"),
    ("O[C@@H]1CCC[C@H]1N1CCC2(CCN(c3nc(-c4ccncc4)nc4cnccc34)CC2)C1 (single isomer, unassigned)", "TAZ nuclear translocation in SW1990 cells", "L"),
    ("CC(C)(O)CN1CCC2(CCN(c3nc(-c4ccncc4)nc4cncc(OC5COC5)c34)CC2)C1", "TAZ nuclear translocation in SW1990 cells", "L"),
    ("CC1CC2(CCN(c3nc(-c4ccncc4)nc4cnccc34)CC2)CN1 (stereo not shown)", "TAZ nuclear translocation in SW1990 cells", "M"),
    ("NS(=O)(=O)CCN1CCC2(CCN(c3nc(-c4ccncc4)nc4cnccc34)CC2)C1", "TAZ nuclear translocation in SW1990 cells", "H"),
    ("FCCCN1CCC2(CCN(c3nc(-c4ccncc4)nc4cnccc34)CC2)C1", "TAZ nuclear translocation in SW1990 cells", "M"),
    ("FCCN1CCC2(CCN(c3nc(-c4ccncc4)nc4cnccc34)CC2)C1", "TAZ nuclear translocation in SW1990 cells", "M"),
    ("OCC1CC2(CCN(c3nc(-c4ccncc4)nc4cnccc34)CC2)CN1 (stereo not shown)", "TAZ nuclear translocation in SW1990 cells", "M"),
]
